molecular target: CYP3A4 (Homo sapiens, UniProt P08684); test: P450-Glo CYP3A4 luciferin isopropylacetal (Luc-IP) assay
Sequence (P08684 whole entry): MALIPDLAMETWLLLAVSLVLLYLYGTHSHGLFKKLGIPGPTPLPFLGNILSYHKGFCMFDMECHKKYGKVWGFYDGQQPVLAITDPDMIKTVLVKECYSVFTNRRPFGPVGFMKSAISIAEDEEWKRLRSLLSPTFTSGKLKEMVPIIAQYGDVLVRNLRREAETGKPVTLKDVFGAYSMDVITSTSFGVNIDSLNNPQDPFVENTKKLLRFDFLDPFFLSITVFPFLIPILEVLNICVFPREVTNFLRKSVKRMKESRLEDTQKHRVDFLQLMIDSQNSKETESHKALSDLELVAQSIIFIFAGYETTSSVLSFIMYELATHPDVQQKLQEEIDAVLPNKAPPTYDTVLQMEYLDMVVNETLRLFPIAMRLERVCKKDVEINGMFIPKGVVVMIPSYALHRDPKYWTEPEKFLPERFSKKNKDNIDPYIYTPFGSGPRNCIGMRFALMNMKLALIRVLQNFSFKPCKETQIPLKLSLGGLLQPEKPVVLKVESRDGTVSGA
measured_metric: IC50

Example entries and their recorded answers appear below.
Record lookup: for CYP3A4 (Homo sapiens, UniProt P08684), what IC50 belongs to CN1CCC(NC(=O)c2ccc(-c3c[nH]c4cc(F)ccc34)cc2)CC1 [Example 24] ?
> 10 µM

Value wanted: IC50 (CYP3A4 (Homo sapiens, UniProt P08684)) of entry O=C(NC[C@@H]1CCCN1)c1ccc(-c2c[nH]c3cc(F)ccc23)cc1 [Example 84]
> 10 µM

Form field: IC50 recorded for CO[C@H]1CNCC[C@H]1NC(=O)c1ccc(-c2c[nH]c3cc(F)ccc23)cc1 [Example 43] with CYP3A4 (Homo sapiens, UniProt P08684) (enter value)
5 to 10 µM

Item: COC(=O)[C@@H](C)NC(=O)c1ccc(-c2c[nH]c3cc(F)ccc23)cc1 [Example 18] Test system: CYP3A4 (Homo sapiens, UniProt P08684) Read-out: IC50 Value: ?
> 10 µM

Give recorded IC50 with CYP3A4 (Homo sapiens, UniProt P08684) for the following compound: O=C(CC1(O)CCCC1)Nc1ccc(-c2c[nH]c3cc(F)ccc23)cc1 [Example 98]
> 10 µM

---
Entry COC(=O)CNC(=O)c1ccc(-c2c[nH]c3cc(F)ccc23)cc1 [Example 138] , system CYP3A4 (Homo sapiens, UniProt P08684): what IC50 was measured?
> 10 µM

Requested read-out IC50, target or system CYP3A4 (Homo sapiens, UniProt P08684), entry CC(CN(C)C)NC(=O)c1ccc(-c2c[nH]c3cc(F)ccc23)cc1Cl (stereo not drawn) [Example 82]
5 to 10 µM

Record lookup: for CYP3A4 (Homo sapiens, UniProt P08684), what IC50 belongs to COc1cc(-c2c[nH]c3cc(F)ccc23)ccc1C(=O)N[C@H](C)CO [Example 111] ?
> 10 µM

Provide the documented IC50 with CYP3A4 (Homo sapiens, UniProt P08684) as the system for CCN(CC)CC(C)NC(=O)c1ccc(-c2c[nH]c3cc(F)ccc23)cc1Cl (stereo not drawn) [Example 73]
> 10 µM
